From: patent US20250195521A1

Molecular target: KRAS G12S (Homo sapiens (Human), UniProt P01116+P62937, G12S)
Sequence (P01116 other isoform, or with tags, fused parts or gaps G12S): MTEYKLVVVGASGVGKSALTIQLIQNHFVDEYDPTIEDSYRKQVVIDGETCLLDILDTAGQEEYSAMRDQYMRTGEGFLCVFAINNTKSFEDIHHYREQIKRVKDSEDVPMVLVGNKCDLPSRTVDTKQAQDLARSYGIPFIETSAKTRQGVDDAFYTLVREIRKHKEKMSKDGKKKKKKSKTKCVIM
Sequence (P62937 whole entry): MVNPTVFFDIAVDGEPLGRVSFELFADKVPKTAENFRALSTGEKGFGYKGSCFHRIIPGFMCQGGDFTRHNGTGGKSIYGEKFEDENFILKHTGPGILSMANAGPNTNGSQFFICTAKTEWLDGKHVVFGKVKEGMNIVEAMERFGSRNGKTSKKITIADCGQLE
Test: Ras-Raf disruption/FRET/MOA assay (BRAF RBD, Cyclophilin A)
Assay type: biochemical
Details: read-out: KRAS G12S FRET IC50
observed.property: IC50

[
  {
    "compound": "CCn1c(-c2cccnc2[C@H](C)OC)c2c3cc(ccc31)-c1csc(n1)C[C@H](NC(=O)[C@H](C(C)C)N(C)C(=O)N1CC(O)C1)C(=O)N1CCC[C@H](N1)C(=O)OCC(C)(C)C2 [Compound A358]",
    "observed.measurement": "100 to 1000 nM"
  }
]

[Q] # query: IC50 | item CCn1c(-c2cnccc2COC)c2c3cc(ccc31)-c1cc(O)cc(c1)C[C@H](NC(=O)[C@H](C(C)C)N(C)C(=O)N1CCOCC1)C(=O)N1CCC[C@H](N1)C(=O)OCC(C)(C)C2 [Compound A257] | system: KRAS G12S (Homo sapiens (Human), UniProt P01116+P62937, G12S)
[A] 100 to 1000 nM

[Q] # query: IC50 | item CCn1c(-c2cccnc2[C@H](C)OC)c2c3cc(ccc31)-c1csc(n1)C[C@H](NC(=O)[C@H](C(C)C)N(C)C(=O)N1CC3(CCCN(C)C3=O)C1)C(=O)N1CCC[C@H](N1)C(=O)OCC(C)(C)C2 [Compound A453] | system: KRAS G12S (Homo sapiens (Human), UniProt P01116+P62937, G12S)
[A] 1000 to 10000 nM

[Q] # query: IC50 | item CCn1c(-c2cccnc2[C@H](C)OC)c2c3cc(ccc31)-c1csc(n1)C[C@H](NC(=O)[C@H](C(C)C)N(C)C(=O)[C@@H]1[C@@H]3CN(C)C[C@@H]31)C(=O)N1CCC[C@H](N1)C(=O)OCC(C)(C)C2 [Compound A447] | system: KRAS G12S (Homo sapiens (Human), UniProt P01116+P62937, G12S)
[A] 100 to 1000 nM
